Just for reference, PubChem BioAssay AID1963838 is where these values come from.

- Tested on: 855422-203-R-J1-PDC complex spheroid viability;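 also: spheroids exposed to compounds for seven days before readout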
- procedureDetails: Anticancer human tumor 855422-203-R-J1-PDC patient-derived bladder carcinoma cell line growth inhibition [POLQ]
- details: second compound 0.0316 µM; first compound 0.1 µM; active compounds read low
Listed below: viability, T/C values for each entry.
The answer is to be given in %; state only the numeric part.

| molecule | numericReadout |
| --- | --- |
| Nc1ccn(C2OC(CO)C(O)C2(F)F)c(=O)n1 (stereo unspecified) + Nc1ccc(C#CCN(C(=O)Cc2ncc(C(F)(F)F)cc2C(F)(F)F)c2ccc(F)cc2)nn1 | 18.9 |
| CNCc1ccc(-c2[nH]c3cc(F)cc4c3c2CCNC4=O)cc1 + Cc1cccc(N(C)C(=O)C2C(O)CCN2c2nc(C)cc(C(F)(F)F)c2C#N)c1 | 101 |
| COc1cccc(OCCCN)c1-c1cc(Nc2cnc(C#N)cn2)n[nH]1 + COC1C(OC(N)=O)C(O)C(Oc2ccc3c(O)c(NC(=O)c4ccc(O)c(CC=C(C)C)c4)c(=O)oc3c2C)OC1(C)C | 8.97 |
| CCCS(=O)(=O)Nc1ccc(F)c(C(=O)c2c[nH]c3ncc(-c4ccc(Cl)cc4)cc23)c1F + Cc1cccc(N(C)C(=O)C2C(O)CCN2c2nc(C)cc(C(F)(F)F)c2C#N)c1 | 131 |
| COc1cccc2c1C(=O)c1c(O)c3c(c(O)c1C2=O)CC(O)(C(=O)CO)CC3OC1CC(N)C(O)C(C)O1 (stereo unspecified) + Cc1cccc(N(C)C(=O)C2C(O)CCN2c2nc(C)cc(C(F)(F)F)c2C#N)c1 | 10.2 |

Exam item: Fill in the blank: the reported viability, T/C of CCc1cc2c(N3CCc4c(cc(Cn5ccnc5)cc4-c4cn(C)nc4C(F)(F)F)C3=O)cc(C)nc2c(OC)n1 + Nc1ccc(C#CCN(C(=O)Cc2ncc(C(F)(F)F)cc2C(F)(F)F)c2ccc(F)cc2)nn1 is ____.
Marked response: 120

Exam item: Fill in the blank: the reported viability, T/C of CC1COCCN1c1cc(-c2ccnn2C)c2ccnc(-c3ccn[nH]3)c2n1 (stereo unspecified) + Cc1cccc(N(C)C(=O)C2C(O)CCN2c2nc(C)cc(C(F)(F)F)c2C#N)c1 is ____.
Marked response: 73

Exam item: Fill in the blank: the reported viability, T/C of O=C(Nc1ccc(O)c(NS(=O)(=O)c2ccc(F)cc2)c1)c1ccc(-c2ccccc2)cc1 + Nc1ccc(C#CCN(C(=O)Cc2ncc(C(F)(F)F)cc2C(F)(F)F)c2ccc(F)cc2)nn1 is ____.
Marked response: 119

Exam item: Fill in the blank: the reported viability, T/C of C#Cc1c(F)ccc2cc(O)cc(-c3ncc4c(N5CC6CCC(C5)N6)nc(OCC56CCCN5CC(F)C6)nc4c3F)c12 (stereo unspecified) + COC1C(OC(N)=O)C(O)C(Oc2ccc3c(O)c(NC(=O)c4ccc(O)c(CC=C(C)C)c4)c(=O)oc3c2C)OC1(C)C is ____.
Marked response: 105

Exam item: Fill in the blank: the reported viability, T/C of COc1cc(C2c3cc4c(cc3C(OC3OC5COC(C)OC5C(O)C3O)C3COC(=O)C23)OCO4)cc(OC)c1O (stereo unspecified) + COC1C(OC(N)=O)C(O)C(Oc2ccc3c(O)c(NC(=O)c4ccc(O)c(CC=C(C)C)c4)c(=O)oc3c2C)OC1(C)C is ____.
Marked response: 99.7

Exam item: Fill in the blank: the reported viability, T/C of CC1COCCN1c1cc(C2(O)CC3CCC(C2)O3)c2cnn(-c3ccn[nH]3)c2n1 (stereo unspecified) + Nc1ccc(C#CCN(C(=O)Cc2ncc(C(F)(F)F)cc2C(F)(F)F)c2ccc(F)cc2)nn1 is ____.
Marked response: 105

Exam item: Fill in the blank: the reported viability, T/C of Nc1ccn(C2OC(CO)C(O)C2(F)F)c(=O)n1 (stereo unspecified) + COC1C(OC(N)=O)C(O)C(Oc2ccc3c(O)c(NC(=O)c4ccc(O)c(CC=C(C)C)c4)c(=O)oc3c2C)OC1(C)C is ____.
Marked response: 31.7

Exam item: Fill in the blank: the reported viability, T/C of CCc1cc2c(N3CCc4c(cc(Cn5ccnc5)cc4-c4cn(C)nc4C(F)(F)F)C3=O)cc(C)nc2c(OC)n1 + Cc1cccc(N(C)C(=O)C2C(O)CCN2c2nc(C)cc(C(F)(F)F)c2C#N)c1 is ____.
Marked response: 134
